B1: Azoarcus group I ribozyme (parent)
chain: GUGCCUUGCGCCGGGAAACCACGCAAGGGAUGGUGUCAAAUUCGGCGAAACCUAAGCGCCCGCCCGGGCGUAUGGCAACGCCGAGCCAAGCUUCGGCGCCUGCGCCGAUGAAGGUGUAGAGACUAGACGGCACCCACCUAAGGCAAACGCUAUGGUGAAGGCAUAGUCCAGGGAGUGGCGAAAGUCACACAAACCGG

Variants of: B1
Test: reverse-splicing fitness (ratio to wild type); higher = more active; in vitro selection; Mg2+ level not given
reverse-splicing fitness below 0.008 gives rule not met; reverse-splicing fitness at or above it gives rule met.

Worked examples follow.
1. C82A A111U A145C C150A C169U U176C	rule met
2. C82A A111G A120U A145U C150A U176G	rule not met
3. C82A A120C A145C C169G U176G	rule not met
4. C82U A111U A120U A145U C150A C169G U176C	rule not met
5. C82U A111U A120C A145C C150A U176C	rule not met

For the next question, use this variant.
Problem: Form field: reverse-splicing fitness at least 0.008? Entry: A111G A120U C150G C169G
Result: rule met
